Test: median toxic concentration on RD cell
Assay type: cell-based
Details: human, RD cells, Table 2-2 (preventive effect), read-out: TC50
experimental-readout: CC50 at 2 h (µM)

# molecule, unit-abbreviation, qualifier-symbol, measured-value
records = [
    ("CC(=O)Nc1ccc(/C=C2\\SC(NS(=O)(=O)c3cccc4ccccc34)=NC2=O)cc1", "µM", "=", 38.5),
    ("O=C1N=C(NS(=O)(=O)c2cccc3ccccc23)S/C1=C\\c1ccc(-c2ccccc2)cc1", "µM", "=", 46.2),
    ("O=C1N=C(NS(=O)(=O)c2cccc3ccccc23)S/C1=C\\c1ccc(Cl)cc1Cl", "µM", "=", 12.8),
    ("COc1cc(/C=C2\\SC(NS(=O)(=O)c3cccc4ccccc34)=NC2=O)ccc1O", "µM", "=", 22.2),
    ("O=C1N=C(NS(=O)(=O)c2cccc3ccccc23)SC1C(c1ccccc1)c1ccc(Br)cc1 (stereo not drawn)", "µM", "=", 38.5),
    ("O=C1N=C(NS(=O)(=O)c2cccc3ccccc23)S/C1=C\\c1ccc(F)cc1Cl", "µM", "=", 15.4),
    ("O=C1N=C(NS(=O)(=O)c2cccc3ccccc23)S/C1=C\\c1ccc(Cl)cc1", "µM", "=", 12.8),
    ("O=C1N=C(NS(=O)(=O)c2cccc3ccccc23)S/C1=C\\c1ccc(Br)cc1 [Con 1, reference compound]", "µM", "=", 12.8),
    ("CCN(CC)c1ccc(/C=C2\\SC(NS(=O)(=O)c3cccc4ccccc34)=NC2=O)c(O)c1", "µM", "=", 12.8),
    ("O=C1N=C(NS(=O)(=O)c2cccc3ccccc23)S/C1=C\\c1ccc(O)c(Br)c1", "µM", "=", 66.7),
    ("O=C1N=C(NS(=O)(=O)c2cccc3ccccc23)S/C1=C\\c1cccc(O)c1", "µM", "=", 38.5),
    ("O=C1N=C(NS(=O)(=O)c2cccc3ccccc23)S/C1=C\\c1ccc(C(=O)O)cc1", "µM", ">", 200),
    ("COc1ccc(/C=C2\\SC(NS(=O)(=O)c3cccc4ccccc34)=NC2=O)cc1O", "µM", "=", 3.56),
    ("O=C1N=C(NS(=O)(=O)c2cccc3ccccc23)SC1Nc1ccccc1 (stereo not drawn)", "µM", "=", 66.7),
    ("COc1cccc(OC)c1/C=C1\\SC(NS(=O)(=O)c2cccc3ccccc23)=NC1=O", "µM", "=", 12.8),
]

----------
System: enterovirus EV71 (SZ-98 strain)
Test: anti-EV71 activity, therapeutic effect on RD cell (CPE inhibition, Celltiter Glo)
Type: cell-based
Details: Enterovirus, EV71

# molecule, measured-on, IC50 / µM
rows = [
    ("O=C1N=C(NS(=O)(=O)c2cccc3ccccc23)S/C1=C\\c1ccc(Br)cc1 [Con 1, reference compound]", "enterovirus EV71 (SZ-98 strain)", 5.14),
    ("CCN(CC)c1ccc(/C=C2\\SC(NS(=O)(=O)c3cccc4ccccc34)=NC2=O)c(O)c1", "enterovirus EV71 (SZ-98 strain)", 7.41),
    ("O=C1N=C(NS(=O)(=O)c2cccc3ccccc23)S/C1=C\\c1ccc(Cl)cc1", "enterovirus EV71 (SZ-98 strain)", 5.75),
]

----------
Assay: median toxic concentration on Vero cell
Type: cell-based
Conditions: African green monkey, Vero cells, Table 2-1 (preventive effect), read-out: TC50
experimental-readout: CC50 at 2 h

# compound, experimental-readout, measured-value
data = [
    ("CCN(CC)c1ccc(/C=C2\\SC(NS(=O)(=O)c3cccc4ccccc34)=NC2=O)c(O)c1", "CC50 at 2 h", "12.8 µM"),
    ("O=C1N=C(NS(=O)(=O)c2cccc3ccccc23)SC1Nc1ccccc1 (centres unmarked)", "CC50 at 2 h", "66.7 µM"),
    ("COc1ccc(/C=C2\\SC(NS(=O)(=O)c3cccc4ccccc34)=NC2=O)cc1O", "CC50 at 2 h", "7.41 µM"),
    ("COc1cc(/C=C2\\SC(NS(=O)(=O)c3cccc4ccccc34)=NC2=O)ccc1O", "CC50 at 2 h", "12.8 µM"),
    ("O=C1N=C(NS(=O)(=O)c2cccc3ccccc23)S/C1=C\\c1ccc(F)cc1Cl", "CC50 at 2 h", "10.7 µM"),
]

----------
Reported CC50 by item:
Assay: median toxic concentration on RD cell
Type: cell-based
Conditions: human, RD cells, Table 1-3 (therapeutic effect), read-out: TC50 (the source's name)

# compound, CC50 [µM]
rows = [
    ("CC(=O)Nc1ccc(/C=C2\\SC(NS(=O)(=O)c3cccc4ccccc34)=NC2=O)cc1", 38.5),
    ("O=C1N=C(NS(=O)(=O)c2cccc3ccccc23)S/C1=C\\c1ccc(O)c(Br)c1", 66.7),
    ("O=C1N=C(NS(=O)(=O)c2cccc3ccccc23)S/C1=C\\c1ccc(Cl)cc1Cl", 12.8),
    ("O=C1N=C(NS(=O)(=O)c2cccc3ccccc23)SC1C(c1ccccc1)c1ccc(Br)cc1 (stereo not shown)", 38.5),
]

----------
Reported CC50 by item:
Assay: median toxic concentration on Vero cell
Format: cell-based
Details: African green monkey, Vero cells, Table 1-1 (therapeutic effect), read-out: TC50 (the source's name)

# smiles, CC50 / µM
rows = [
    ("COc1cccc(OC)c1/C=C1\\SC(NS(=O)(=O)c2cccc3ccccc23)=NC1=O", 38.5),
    ("CCN(CC)c1ccc(/C=C2\\SC(NS(=O)(=O)c3cccc4ccccc34)=NC2=O)c(O)c1", 12.8),
    ("O=C1N=C(NS(=O)(=O)c2cccc3ccccc23)S/C1=C\\c1cccc(O)c1", 38.5),
    ("O=C1N=C(NS(=O)(=O)c2cccc3ccccc23)S/C1=C\\c1ccc(Cl)cc1", 4.28),
    ("COc1cc(/C=C2\\SC(NS(=O)(=O)c3cccc4ccccc34)=NC2=O)ccc1O", 12.8),
    ("CC(=O)Nc1ccc(/C=C2\\SC(NS(=O)(=O)c3cccc4ccccc34)=NC2=O)cc1", 32),
]
